- experimental.protocol: Lipophilic properties by electrochemistry at ITIES (transfer potential)
- Assay type: physicochemical
- particulars: aqueous phase to 1,6-dichlorohexane, DPV, C=0.32 mM
recorded.endpoint: Etr (transfer potential)

Worked set:
CS(=O)(=O)[O-].O=C(/C=C/c1ccc(O)c(O)c1)NCCCCCCCC[P+](c1ccccc1)(c1ccccc1)c1ccccc1 [AntiOxCIN3]    0.345 V
CS(=O)(=O)[O-].O=C(/C=C/c1cc(O)c(O)c(O)c1)NCCCCCCCC[P+](c1ccccc1)(c1ccccc1)c1ccccc1 [AntiOxCIN5]    0.423 V

Can you give me Etr (transfer potential) for all of these, one by one?
1. CS(=O)(=O)[O-].O=C(/C=C/c1cc(O)c(O)c(O)c1)NCCCCCC[P+](c1ccccc1)(c1ccccc1)c1ccccc1 [AntiOxCIN4]
2. CS(=O)(=O)[O-].O=C(/C=C/c1ccc(O)c(O)c1)NCCCCCC[P+](c1ccccc1)(c1ccccc1)c1ccccc1 [AntiOxCIN2]
3. CS(=O)(=O)[O-].O=C(/C=C/c1ccc(O)c(O)c1)NCC[P+](c1ccccc1)(c1ccccc1)c1ccccc1 [AntiOxCIN1, reference compound]
4. CS(=O)(=O)[O-].O=C(/C=C/c1cc(O)c(O)c(O)c1)NCCCCCCCCCC[P+](c1ccccc1)(c1ccccc1)c1ccccc1 [AntiOxCIN7]
5. CS(=O)(=O)[O-].O=C(/C=C/c1ccc(O)c(O)c1)NCCCCCCCCCC[P+](c1ccccc1)(c1ccccc1)c1ccccc1 [AntiOxCIN6]

Solution:
1: 0.498 V; 2: 0.396 V; 3: 0.572 V; 4: 0.377 V; 5: 0.291 V
